Molecular target: anti-CLDN-5 ECR mAb clone 2B12
Sequence (chain, as listed by the source, chain 1 of 2): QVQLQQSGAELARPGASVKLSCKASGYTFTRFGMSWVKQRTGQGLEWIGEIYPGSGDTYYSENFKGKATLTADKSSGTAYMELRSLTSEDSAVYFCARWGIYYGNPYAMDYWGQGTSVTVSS
Sequence (chain, as listed by the source, chain 2 of 2): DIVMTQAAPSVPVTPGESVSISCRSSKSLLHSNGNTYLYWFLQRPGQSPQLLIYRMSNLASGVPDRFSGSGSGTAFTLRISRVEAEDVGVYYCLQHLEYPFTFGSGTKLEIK
Assay: proteoliposome ELISA
Conditions: chain shown with the change;; parent: est. 1.0; read off a plot
measuredAttribute: ratio to parent

ratio to parent reported for this binder AGIA-tagged human CLDN-5, cell-free synthesized proteoliposome, O00501 F147A (protein) MGSAALEILGLVLCLVGWGGLILACGLPMWQVTAFLDHNIVTAQTTWKGLWMSCVVQSTGHMQCKVYDSVLALSTEVQAARALTVSAVLLAFVALFVTLAGAQCTTCVAPGPAKARVALTGGVLYLFCGLLALVPLCWFANIVVREAYDPSVPVSQKYELGAALYIGWAATALLMVGGCLLCCGAWVCTGRPDLSFPVKYSAPRRPTATGDYDKKNYV : 1.3

ratio to parent reported for this binder AGIA-tagged human CLDN-5, cell-free synthesized proteoliposome, O00501 Q156A (protein) MGSAALEILGLVLCLVGWGGLILACGLPMWQVTAFLDHNIVTAQTTWKGLWMSCVVQSTGHMQCKVYDSVLALSTEVQAARALTVSAVLLAFVALFVTLAGAQCTTCVAPGPAKARVALTGGVLYLFCGLLALVPLCWFANIVVREFYDPSVPVSAKYELGAALYIGWAATALLMVGGCLLCCGAWVCTGRPDLSFPVKYSAPRRPTATGDYDKKNYV : 0.94

ratio to parent reported for this binder AGIA-tagged human CLDN-5, cell-free synthesized proteoliposome, O00501 S155A (protein) MGSAALEILGLVLCLVGWGGLILACGLPMWQVTAFLDHNIVTAQTTWKGLWMSCVVQSTGHMQCKVYDSVLALSTEVQAARALTVSAVLLAFVALFVTLAGAQCTTCVAPGPAKARVALTGGVLYLFCGLLALVPLCWFANIVVREFYDPSVPVAQKYELGAALYIGWAATALLMVGGCLLCCGAWVCTGRPDLSFPVKYSAPRRPTATGDYDKKNYV : 0.99
